Assay: in vitro
Assay type: in vitro ADME, mouse
Conditions: other tissue homogenate; mouse liver crude extract 30 µg; peptide 50 µM; 20 min; 250 µL TBS (0.025 M Tris-HCl, 0.125 M NaCl); RP-HPLC C18, UV 214 nm; average of three independent determinations; read-out: % of peptide degraded, Liver Extract (30 µg)
Square brackets hold non-standard residues; d marks the D form. Peptide text beside a SMILES is read from it.

Compound	Reading Unit	metabolised at 20 min
CC(=O)N[C@@H](CC(C)C)C(=O)N[C@@H](C)C(=O)N[C@@H](CO)C(=O)N[C@H](C(=O)N[C@@H](CO)C(=O)N[C@H](C(=O)N[C@H](C(=O)N[C@H](CC(C)C)C(=O)N[C@H](C(=O)N[C@@H](CO)C(=O)N[C@@H](CCCCN)C(=O)N[C@@H](Cc1ccc(O)cc1)C(=O)N[C@@H](CCCNC(=N)N)C(N)=O)[C@@H](C)O)C(C)C)[C@@H](C)O)C(C)C [RIC4-16] (Ac-LASVSTV[dL]TSKYR-NH2)	%	26

---

Reported metabolised at 20 min values are given for each entry in this list.
Assay: in vitro
Type: in vitro ADME
Conditions: other tissue homogenate, mouse kidney crude extract 3 µg, peptide 50 µM, 250 µL TBS (0.025 M Tris-HCl, 0.125 M NaCl), RP-HPLC C18, UV 214 nm, average of three independent determinations, read-out: % of peptide degraded, Kidney Extract (3 µg)
Ends that are not written are not given here.

Substance	metabolised at 20 min (%)
Ac-LASVSTVLTSKYR-NH2 [RIC4-2]	60
LASVSTVLTSKYR [RIC4]	22.6
